# subject.of.test: Serine/threonine-protein kinase pim-1 (Homo sapiens, UniProt P11309)
# Sequence (P11309 whole entry, looked up): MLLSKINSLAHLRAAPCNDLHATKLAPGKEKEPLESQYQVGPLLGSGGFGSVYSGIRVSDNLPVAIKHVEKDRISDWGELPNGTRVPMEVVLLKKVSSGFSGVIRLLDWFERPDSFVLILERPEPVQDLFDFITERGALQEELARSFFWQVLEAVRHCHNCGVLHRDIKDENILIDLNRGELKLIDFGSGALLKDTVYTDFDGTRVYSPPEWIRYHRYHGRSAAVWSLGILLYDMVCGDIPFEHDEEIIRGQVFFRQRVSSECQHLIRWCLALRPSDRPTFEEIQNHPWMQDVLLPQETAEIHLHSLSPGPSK
# assay.text: Inhibition of human full length Pim-1 using RSRHSSYPAGT as substrate assessed as residual activity at 1 uM after 30 mins in presence of [gamma-33P]ATP; values are per cent of control
outcome.measure: residual activity (%)

// solved cases for residual activity follow
1. CCCc1c[nH]c2c([N+](=O)[O-])cc3cn[nH]c3c12: 78
2. CCOCc1c[nH]c2c([N+](=O)[O-])cc3cn[nH]c3c12: 82
3. CCCc1c(C(=O)OC)[nH]c2c([N+](=O)[O-])cc3cn[nH]c3c12: 110
4. C[Si](C)(C)c1cc2c([nH]1)c([N+](=O)[O-])cc1cn[nH]c12: 63
5. C[Si](C)(C)c1cc2c([nH]1)c(N)cc1cn[nH]c12: 94

A: CCc1[nH]c2c(N)cc3cn[nH]c3c2c1-c1ccccc1
B: O=[N+]([O-])c1cc2cn[nH]c2c2c(-c3ccccc3)c[nH]c12
Given the listed records, identify the one among A and B with higher residual activity. Please respond with the label that marks your chosen entry.
A

1: CCOC(=O)c1[nH]c2c(N)cc3cn[nH]c3c2c1-c1ccccc1
2: CCc1[nH]c2c([N+](=O)[O-])cc3cn[nH]c3c2c1-c1ccccc1
3: Nc1cc2cn[nH]c2c2c(-c3ccccc3)c[nH]c12
Please produce an ascending ranking of these compounds based on residual activity. Please, when replying, give the labels in the order that was requested.
2, 1, 3

I: CCCc1c[nH]c2c(N)cc3cn[nH]c3c12
II: CCCc1c(C(=O)OC)[nH]c2c(N)cc3cn[nH]c3c12
Recorded residual activity values differ for I and II ; which one is higher? Return value: the label identifying the chosen record.
I
(I: 104%, II: 71%)

a: O=[N+]([O-])c1cc2cn[nH]c2c2cc[nH]c12
b: Nc1cc2cn[nH]c2c2cc[nH]c12
Between a and b , whose recorded residual activity is greater? Your choice should be expressed through its label.
a
(a: 102%, b: 63%)

---

# subject.of.test: Serine/threonine-protein kinase pim-1 (Homo sapiens, UniProt P11309)
# assay.text: Inhibition of human full length Pim-1 using RSRHSSYPAGT as substrate assessed as residual activity at 10 uM after 30 mins in presence of [gamma-33P]ATP; values are per cent of control
outcome.measure: residual activity (%)

1. Nc1cc2cn[nH]c2c2c(-c3ccccc3)c[nH]c12: 51
2. CCc1[nH]c2c([N+](=O)[O-])cc3cn[nH]c3c2c1-c1ccccc1: 51
3. CCOC(=O)c1[nH]c2c([N+](=O)[O-])cc3cn[nH]c3c2c1-c1ccccc1: 55
4. CCCc1c(C(=O)OC)[nH]c2c([N+](=O)[O-])cc3cn[nH]c3c12: 39

a: CCOC(=O)c1[nH]c2c(N)cc3cn[nH]c3c2c1C
b: C[Si](C)(C)c1cc2c([nH]1)c([N+](=O)[O-])cc1cn[nH]c12
c: O=Cc1c[nH]c2c([N+](=O)[O-])cc3cn[nH]c3c12
Arrange the 3 entries by residual activity so the values rise. // respond by listing labels in the order requested
b, c, a

---

# subject.of.test: Serine/threonine-protein kinase pim-3 (Homo sapiens)
# assay.text: Inhibition of human full length Pim-3 using RSRHSSYPAGT as substrate assessed as residual activity at 10 uM after 30 mins in presence of [gamma-33P]ATP; values are per cent of control
outcome.measure: residual activity (%)

// solved cases for residual activity follow
1. CCc1[nH]c2c(N)cc3cn[nH]c3c2c1-c1ccccc1: 23
2. O=[N+]([O-])c1cc2cn[nH]c2c2cc[nH]c12: 18

1: O=Cc1c[nH]c2c([N+](=O)[O-])cc3cn[nH]c3c12
2: Nc1cc2cn[nH]c2c2cc[nH]c12
3: CCc1[nH]c2c([N+](=O)[O-])cc3cn[nH]c3c2c1-c1ccccc1
4: CCOC(=O)c1[nH]c2c([N+](=O)[O-])cc3cn[nH]c3c2c1-c1ccccc1
5: C[Si](C)(C)c1cc2c([nH]1)c([N+](=O)[O-])cc1cn[nH]c12
List items by residual activity in falling order. Reply format: the labels, ordered as requested.
4, 3, 1, 5, 2
(4: 90%, 3: 36%, 1: 25%, 5: 9%, 2: 4%)
